// data source = PubChem BioAssay (NCATS)

Biological target: ATPase family AAA domain-containing protein 5 (Homo sapiens) (UniProt Q96QE3)
Sequence (Q96QE3 whole entry, looked up, the tested form may be a part): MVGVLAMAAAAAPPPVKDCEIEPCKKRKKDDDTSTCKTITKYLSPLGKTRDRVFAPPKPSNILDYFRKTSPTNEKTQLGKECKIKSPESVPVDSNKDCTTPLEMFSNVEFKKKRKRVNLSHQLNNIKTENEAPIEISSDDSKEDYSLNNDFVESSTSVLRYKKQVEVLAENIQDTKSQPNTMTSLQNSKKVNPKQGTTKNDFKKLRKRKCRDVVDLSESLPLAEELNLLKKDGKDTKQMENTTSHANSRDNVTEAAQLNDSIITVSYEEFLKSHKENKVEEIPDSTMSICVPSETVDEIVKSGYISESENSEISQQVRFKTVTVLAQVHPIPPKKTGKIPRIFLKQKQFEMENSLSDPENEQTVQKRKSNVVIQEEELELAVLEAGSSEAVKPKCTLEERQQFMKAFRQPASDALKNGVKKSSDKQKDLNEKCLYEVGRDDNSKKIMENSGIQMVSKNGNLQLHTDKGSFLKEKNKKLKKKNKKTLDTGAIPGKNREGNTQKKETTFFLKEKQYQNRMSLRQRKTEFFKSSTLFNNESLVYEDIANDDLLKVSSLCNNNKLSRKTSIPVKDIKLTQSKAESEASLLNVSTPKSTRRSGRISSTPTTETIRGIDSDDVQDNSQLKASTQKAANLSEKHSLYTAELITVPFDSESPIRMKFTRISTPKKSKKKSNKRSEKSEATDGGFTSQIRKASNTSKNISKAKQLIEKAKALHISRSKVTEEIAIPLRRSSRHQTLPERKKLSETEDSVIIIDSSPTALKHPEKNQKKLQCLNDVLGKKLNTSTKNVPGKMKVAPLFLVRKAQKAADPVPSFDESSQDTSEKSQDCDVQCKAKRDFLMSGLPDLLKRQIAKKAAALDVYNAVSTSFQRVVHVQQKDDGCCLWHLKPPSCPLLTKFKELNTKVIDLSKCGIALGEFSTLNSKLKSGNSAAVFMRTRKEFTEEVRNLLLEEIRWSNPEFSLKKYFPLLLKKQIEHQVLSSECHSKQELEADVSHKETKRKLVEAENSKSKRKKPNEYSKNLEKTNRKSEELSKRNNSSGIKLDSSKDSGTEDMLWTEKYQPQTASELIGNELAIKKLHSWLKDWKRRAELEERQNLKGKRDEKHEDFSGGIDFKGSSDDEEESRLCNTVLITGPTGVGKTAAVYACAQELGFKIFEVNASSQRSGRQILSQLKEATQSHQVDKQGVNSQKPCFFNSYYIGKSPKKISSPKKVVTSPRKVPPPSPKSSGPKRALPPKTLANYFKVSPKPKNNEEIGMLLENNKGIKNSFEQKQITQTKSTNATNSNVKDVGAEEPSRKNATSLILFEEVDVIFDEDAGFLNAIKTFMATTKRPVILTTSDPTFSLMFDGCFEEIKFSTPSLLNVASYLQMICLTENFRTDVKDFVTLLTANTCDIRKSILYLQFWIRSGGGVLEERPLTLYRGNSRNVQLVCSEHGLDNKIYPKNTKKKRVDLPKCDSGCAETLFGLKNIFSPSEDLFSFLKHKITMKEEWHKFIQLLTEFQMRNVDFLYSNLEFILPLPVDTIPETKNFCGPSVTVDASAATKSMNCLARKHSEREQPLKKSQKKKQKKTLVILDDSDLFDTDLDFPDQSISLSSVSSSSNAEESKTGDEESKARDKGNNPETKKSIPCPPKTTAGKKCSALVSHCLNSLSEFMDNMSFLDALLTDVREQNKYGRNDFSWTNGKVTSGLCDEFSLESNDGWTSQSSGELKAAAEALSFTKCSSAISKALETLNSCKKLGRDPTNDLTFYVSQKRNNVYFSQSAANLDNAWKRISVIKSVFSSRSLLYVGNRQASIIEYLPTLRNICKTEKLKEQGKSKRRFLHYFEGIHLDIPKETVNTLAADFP
Assay: Validation screen for small molecules that inhibit ELG1-dependent DNA repair in human embryonic kidney (HEK293T) cells expressing luciferase-tagged ELG1 (AID 493107); note: nearly all actives have a fitted effect of over 70% in size
Details: HEK293T ELG1-luciferase level, luminescence, 5-fluorouridine co-treatment, 16 h; series mostly up to 46.1 µM
Records with an inconclusive call do not appear. Active and inactive are the calls of the source. Calls come from the whole dose curve; as a rule, active = well fitted inhibition curve with a large enough effect; inconclusive = small, poorly fitted or top-dose-only effect, or effect the other way; inactive = flat fitted curve, though single readings scatter.
Select the matching outcome among class 1 for active, class 0 for inactive

Solved entries:
{"columns": ["structure", "answer.label"],
 "data": [
  ["O=C(O)c1nn(Cc2ccc(Cl)cc2Cl)c2ccccc12", "class 0"],
  ["COC(=O)C1=C(C)NC(C)=C(C(=O)OC)C1c1ccccc1[N+](=O)[O-]", "class 1"],
  ["NC(=O)CN1CCCC1=O", "class 0"],
  ["CC[C@H]1CN2CCc3cc(OC)c(OC)cc3[C@@H]2C[C@@H]1C[C@H]1NCCc2cc(OC)c(OC)cc21", "class 1"]
]}

Next up:
Problem: Given "COc1ccc(C(=O)N2CCCC2=O)cc1" , state the outcome it received in this test.
Solution: class 0

###

Assay: P-glycoprotein substrates identified in KB-8-5-11 adenocarcinoma cell line, qHTS therapeutic library screen (AID 1346987); note: nearly all actives have a fitted effect of over 65% in size
Conditions: KB-8-5-11 (P-gp overexpressing) viability, CellTiter-Glo, 72 h; series mostly up to 44.5 µM
Results filed as inconclusive are left out. Activity calls are given as the source filed them. Calls follow the shape of the dose curve; as a rule, active = well fitted inhibition curve with a large enough effect; inconclusive = small, poorly fitted or top-dose-only effect; inactive = flat fitted curve, though single readings scatter.
The categories you may choose from are active, inactive

Worked examples, 5 compounds total:
{"columns": ["compound", "answer.label"],
 "data": [
  ["CC1=C2[C@H]3OC(=O)[C@@H](C)[C@@H]3CC[C@@]2(C)C=CC1=O", "inactive"],
  ["CCOP(=S)(OCC)O/N=C(\\C#N)c1ccccc1", "inactive"],
  ["COc1ccc2c(C(=O)c3ccc(Cl)cc3)c(C)n(CC(=O)O)c2c1", "inactive"],
  ["CCNc1nc(Cl)nc(NCC)n1", "inactive"],
  ["CNC(C)Cc1ccc2c(c1)OCO2 (configuration not stated)", "inactive"]
]}

Problem: Hi, sorry to bother you, what did the test record for "CC(C)[N+](C)(CCC(C(N)=O)(c1ccccc1)c1ccccc1)C(C)C" ?
Solution: inactive

Problem: # outcome recorded in this test, key = "NC(=O)CN1CCCC1=O"
Solution: inactive

Problem: Record lookup: outcome of this test for "COc1cc(C[C@@H](C)N)c(OC)cc1Br" ?
Solution: inactive

###

System: PC15
Experiment: qHTS profiling for inhibitors of Plasmodium falciparum proliferation (AID 504749); note: nearly all actives have a fitted effect of over 60% in size
Details: P. falciparum in erythrocytes, SYBR Green DNA, 72 h; series mostly up to 28.7 µM
Results filed as inconclusive are left out. The source made the active and inactive calls. The call rests on the fitted dose curve; in most records, active means well fitted inhibition curve with a large enough effect; inconclusive means small, poorly fitted or top-dose-only effect; inactive means flat fitted curve, though single readings scatter.
Respond with a class label; see active, inactive

Some entries whose results are on file:
{"columns": ["compound", "assay.target", "answer.label"],
 "data": [
  ["CNC(=O)NC(O)C(Cl)(Cl)Cl (configuration not stated)", "PC15", "inactive"],
  ["COc1ccc(CN2CCNCC2)c(OC)c1OC", "PC15", "inactive"],
  ["CC(C)[N+](C)(CCC(C(N)=O)(c1ccccc1)c1ccccc1)C(C)C", "PC15", "inactive"],
  ["O=C(O)c1nn(Cc2ccc(Cl)cc2Cl)c2ccccc12", "PC15", "inactive"]
]}

Problem: Which outcome did this test record for the compound CCC1(c2ccccc2)CCC(=O)NC1=O (configuration not stated) ?
Solution: inactive

Problem: Tell me the recorded outcome of this test for "Clc1ccc(CO/N=C(\Cn2ccnc2)c2ccc(Cl)cc2Cl)c(Cl)c1" .
Solution: active

Problem: Short answer needed: outcome of this test for "Oc1c(Br)cc(Br)cc1Br" ?
Solution: inactive

Problem: Please share the test call associated with C=CCOC(Cn1ccnc1)c1ccc(Cl)cc1Cl (configuration not stated) .
Solution: active

Problem: What did this assay record as the result for "CCS(=O)(=O)C(C)(C)S(=O)(=O)CC" ?
Solution: inactive

Problem: What outcome does the record of this test show for "C#C[C@]1(O)CC[C@H]2[C@@H]3CCC4=CC(=O)CCC4=C3C=C[C@@]21CC" ?
Solution: active

Problem: Which outcome was assigned to O=C(NC(=O)c1c(F)cccc1F)Nc1cc(Cl)c(OC(F)(F)C(F)C(F)(F)F)cc1Cl (configuration not stated) in this test?
Solution: inactive

Problem: Give the logged outcome of this assay for the following compound: "CCC1(CC)C(=O)NC(=O)NC1=O"
Solution: inactive

###

Test: qHTS for Inhibitors of the Functional Ribonucleoprotein Complex (vRNP) of Lassa (LASV) Arenavirus: Viability assay - alamar blue signal for LASV Primary Screen (AID 1347083); note: % is set by controls: 0 for no effect and ±100 for the full control effect; nearly all actives have a fitted effect of over 80% in size
Settings: cell viability, alamar blue fluorescence (LASV minigenome counter-screen); series mostly up to 57.5 µM
Results filed as inconclusive are left out. Calls of active or inactive are those of the source. The call rests on the fitted dose curve; tested in HEK293 reporter line.
reported.endpoint: activity change, negative = reduced viability

{"columns": ["structure", "endpoint.result"],
 "data": [
  ["CCCOC(C(=O)OC1CCN(C)CC1)(c1ccccc1)c1ccccc1", "inactive"],
  ["Cc1ccc(O)cc1", "inactive"],
  ["COc1ccc2cc(C=O)ccc2c1", "inactive"],
  ["C[C@]12CC[C@H]3[C@@H](CCC4=CC(=O)CC[C@@]43C)[C@@H]1CC[C@@H]2C(=O)O", "inactive"],
  ["O=C(O)Cc1ccc(CCNS(=O)(=O)c2ccc(Cl)cc2)cc1", "inactive"]
]}

Input "C=CCN1CC[C@]23CCCC[C@H]2[C@H]1Cc1ccc(O)cc13" . Output activity change, negative = reduced viability: inactive

###

Conditions: Ebola virus entry assay, green fluorescence channel
Potency and affinity values are given separately.
Entry flag: MET if efficacy reaches 30%; NOT MET if it does not.

These recorded examples may help you get a feel for the data.
{"columns": ["compound", "answer.label"],
 "data": [
  ["Cc1ccc(/C=N/n2c(-c3ccccc3)csc2=S)cc1", "MET"],
  ["CC(=O)c1ccc2c(c1)N(CCCN1CCC(CCO)CC1)c1ccccc1S2", "MET"],
  ["CC(C)C(Br)C(=O)NC(N)=O (stereo unspecified)", "NOT MET"],
  ["O=C(O)Cc1ccc(CCNS(=O)(=O)c2ccc(Cl)cc2)cc1", "NOT MET"],
  ["CCN(CC)CCOC(=O)C(Cc1cccc2ccccc12)CC1CCCO1 (stereo unspecified)", "MET"]
]}

Problem: Please check the record "CC(=O)[C@@]1(O)CC[C@H]2[C@@H]3CCC4=CC(=O)CC[C@]4(C)[C@H]3CC[C@@]21C" and state if its efficacy is at or above 30%.
Solution: NOT MET

###

Test system: GB4
Assay: qHTS profiling for inhibitors of Plasmodium falciparum proliferation (AID 504749); note: nearly all actives have a fitted effect of over 60% in size
Settings: P. falciparum in erythrocytes, SYBR Green DNA, 72 h; series mostly up to 28.7 µM
Inconclusive results are not listed. The source made the active and inactive calls. The call rests on the fitted dose curve; in most records, active means well fitted inhibition curve with a large enough effect; inconclusive means small, poorly fitted or top-dose-only effect; inactive means flat fitted curve, though single readings scatter.
I would appreciate it if you answered using one of these outcomes: class 1 = active, class 0 = inactive

{"columns": ["compound", "answer.label"],
 "data": [
  ["CCOC(=O)NC(O)C(Cl)(Cl)Cl (configuration not stated)", "class 0"],
  ["C=CCOC(Cn1ccnc1)c1ccc(Cl)cc1Cl (configuration not stated)", "class 1"],
  ["C[N+](C)(C)CCOC(=O)C(O)(c1ccccc1)c1ccccc1", "class 0"],
  ["O=C1NCN(c2ccccc2)C12CCN(CCCOc1ccc(F)cc1)CC2", "class 1"]
]}

Problem: Give the logged outcome of this assay for the following compound: "OC(c1ccccc1)(c1ccccc1)C1CCNCC1"
Solution: class 0

Problem: What classification did "NC(=O)OCCCc1ccccc1" end up with in this test?
Solution: class 0

Problem: For "OC(O)C(Cl)(Cl)Cl" , what call appears in the results of this test?
Solution: class 0

###

Assay: Primary qHTS for inhibitors of MERS-S pseudo-typed particle cell entry (AID 1479149); note: nearly all actives have a fitted effect of over 60% in size
Settings: MERS-S pseudotyped particle entry, luciferase; series mostly up to 57.1 µM
Inconclusive results are not listed. Calls of active or inactive are those of the source. Calls follow the shape of the full dose curve.

{"columns": ["compound", "outcome"],
 "data": [
  ["N[C@@H](CSSC[C@H](N)C(=O)O)C(=O)O", "inactive [at 0.573 µM]"],
  ["CCN[C@@H]1C[C@H](N)[C@@H](OC2OC(CN)=CCC2N)[C@H](O)[C@H]1O[C@H]1OC[C@](C)(O)[C@H](NC)[C@H]1O (some centres undefined)", "inactive [at 0.573 µM]"]
]}

###

Experiment: Cytotoxicity counterscreen for inhibitors of SARS-CoV-2 cell entry (AID 1645845); note: nearly all actives have a fitted effect of over 50% in size
Settings: cell viability (SARS-CoV-2 entry assay cells); series mostly up to 57.1 µM
Inconclusive results are not listed. The source made the active and inactive calls. The call rests on the fitted dose curve.
Reply using exactly one outcome from active, inactive

Check out these entries, answers already filled in.
{"columns": ["compound", "answer.label"],
 "data": [
  ["CC1(C)[C@@H]2CC[C@@]1(C)C(=O)C2", "inactive"],
  ["Cc1cccc(N(C)C(=S)Oc2ccc3c(c2)C2CCC3C2)c1 (stereo unspecified)", "inactive"],
  ["N=C(N)c1ccc2cc(OC(=O)c3ccc(N=C(N)N)cc3)ccc2c1", "inactive"]
]}

Problem: Outcome? "CCN(CC)CCOC(=O)C1(c2ccccc2)CCCC1"
Solution: inactive

Problem: // return assay outcome for "Cc1c(Cl)c(=O)oc2cc(OP(=O)(OCCCl)OCCCl)ccc12"
Solution: inactive

Problem: Kindly provide the recorded test outcome for the following compound: "Cc1c(C(=O)NN2CCCCC2)nn(-c2ccc(Cl)cc2Cl)c1-c1ccc(Cl)cc1"
Solution: inactive
